These measurements were taken from paper PMC6906431.

Experiment: Sulforhodamine B (SRB) cytotoxicity assay
Conditions: human, PC3 cells, Viability, -IR, log [concentration] μM 2.39794

>  <COMPOUND>
O=C(c1cc(Cc2n[nH]c(=O)c3ccccc23)ccc1F)N1CCN(C(=O)C2CC2)CC1 [Olaparib, reference compound]

>  <viability at 72 h, 250 µM / %>
9.43

$$$$

====

Assay: Sulforhodamine B (SRB) cytotoxicity assay
Conditions: human, PC3 cells, Viability, +IR 7.0 Gy, log [concentration] μM 1.19382
RECORDED ENDPOINT: viability at 72 h, 15.63 µM (%)

>  <MOLECULE>
O=C(c1cc(Cc2n[nH]c(=O)c3ccccc23)ccc1F)N1CCN(C(=O)C2CC2)CC1 [Olaparib, reference compound]

>  <ENDPOINT VALUE>
99.1

$$$$

====

Experiment: Sulforhodamine B (SRB) cytotoxicity assay
Conditions: human, PC3 cells, Viability, without IR, log [concentration] μM 0.893
RECORDED ENDPOINT: viability at 72 h, 7.8 µM (%)

>  <SUBSTANCE SMILES>
Cn1c(=S)c2[nH]c(SCCN3CCOCC3)nc2n(C)c1=O

>  <ENDPOINT VALUE>
94.1

$$$$

====

Assay: Sulforhodamine B (SRB) cytotoxicity assay
Conditions: human, PC3 cells, Viability, +IR 7 Gy, log [concentration] μM -0.01

>  <SUBSTANCE SMILES>
Cn1c(=S)c2[nH]c(SCCN3CCOCC3)nc2n(C)c1=O

>  <viability at 72 h, 0.98 µM [%]>
102

$$$$

====

Test: Sulforhodamine B (SRB) cytotoxicity assay
Settings: human, PC3 cells, Viability, +IR 7 Gy, log [concentration] μM 0.592

>  <COMPOUND>
Cn1c(=S)c2[nH]c(SCCN3CCOCC3)nc2n(C)c1=O [JA2131]

>  <viability at 72 h, 3.9 µM, %>
99.5

$$$$

====

Recorded inhibition at 6.25 µM, one value per entry.
Target: Human PARG (Homo sapiens)
Construct: The human PARG (hPARG) catalytic domain (residues 389–976) was cloned in pET28a (Novagen); His-tag (N); made in house; host or cells: E. coli Rosetta
Sequence (Q86W56 389-976): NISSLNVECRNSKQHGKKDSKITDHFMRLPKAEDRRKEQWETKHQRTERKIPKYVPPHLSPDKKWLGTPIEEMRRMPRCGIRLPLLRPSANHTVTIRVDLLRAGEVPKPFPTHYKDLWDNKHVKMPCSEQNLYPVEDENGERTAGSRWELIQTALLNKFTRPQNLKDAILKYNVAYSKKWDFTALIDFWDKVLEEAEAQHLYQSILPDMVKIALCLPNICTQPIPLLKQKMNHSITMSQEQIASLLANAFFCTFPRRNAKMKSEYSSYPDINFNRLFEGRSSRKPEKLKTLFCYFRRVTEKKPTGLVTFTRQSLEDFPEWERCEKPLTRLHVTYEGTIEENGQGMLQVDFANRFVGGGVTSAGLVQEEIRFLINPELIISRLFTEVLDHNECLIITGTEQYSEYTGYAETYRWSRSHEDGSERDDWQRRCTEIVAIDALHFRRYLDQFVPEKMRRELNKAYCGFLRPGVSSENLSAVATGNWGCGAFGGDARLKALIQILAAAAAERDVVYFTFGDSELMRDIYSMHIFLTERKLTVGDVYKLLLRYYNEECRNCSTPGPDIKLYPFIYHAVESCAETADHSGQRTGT
Test: Gel-based PARG activity assay
Format: biochemical
Conditions: [L] 6.25 uM

>  <SUBSTANCE SMILES>
Cn1c(=O)c2[nH]c(SCCN3CCOCC3)nc2n(C)c1=S

>  <MEASUREMENT UNITS>
%

>  <inhibition at 6.25 µM>
87.9

$$$$
>  <SUBSTANCE SMILES>
Cn1c(=O)c2[nH]c(SCCN3CCOCC3)nc2n(C)c1=O

>  <MEASUREMENT UNITS>
%

>  <inhibition at 6.25 µM>
24.7

$$$$
>  <SUBSTANCE SMILES>
Cn1c(=S)c2nc(SCCN3CCCC3)[nH]c2n(C)c1=O

>  <MEASUREMENT UNITS>
%

>  <inhibition at 6.25 µM>
78.4

$$$$
>  <SUBSTANCE SMILES>
Cn1c(=S)c2[nH]c(SCCN3CCOCC3)nc2n(C)c1=O

>  <MEASUREMENT UNITS>
%

>  <inhibition at 6.25 µM>
98.7

$$$$

====

Test: Sulforhodamine B (SRB) cytotoxicity assay
Conditions: human, PC3 cells, Viability, without IR, log [concentration] μM 1.796

>  <COMPOUND>
Cn1c(=S)c2[nH]c(SCCN3CCOCC3)nc2n(C)c1=O [JA2131]

>  <viability at 72 h, 62.5 µM>
6.73%

$$$$
